Each entry below lists one item and its recorded viability value.
Assay: growth suppression of beta-catenin knockout HCT116, pilot screen, human colon tumor cells (AID 823);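 note: 0% = wells killed by 20 µM Hyamine and 100% = untreated DMSO cell wells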
Settings: CellTiter-Glo, 60 h, at 10 µM, stronger effect = lower value
Records with an inconclusive call do not appear.
Write down the numeric answer in % and omit the unit.

// worked examples, viability included
Cc1cc(Nc2ccc(C)c(C)c2)n2nc(C)nc2n1 ... 105
CCOC(=O)c1c(/N=C/N(C)C)sc(C(=O)OC)c1C ... 91.1
Cc1cc(=O)[nH]c(SCc2cc(=O)n3nc(C)sc3n2)n1 ... 104
CCc1ccc(-c2nc(CN3CCCC(C(=O)O)C3)c(C)o2)cc1 (centres undefined) ... 97.6

query: Which viability value is on record for "C/C=C/Cn1c(N(C)Cc2ccccc2)nc2c1c(=O)[nH]c(=O)n2C" ?
result: 102

query: So what's the measured viability for this one? "CCCCN(C(=O)NC(=O)C1=C(N2CCOCC2)/C(=C/c2ccccc2)CC1)S(C)(=O)=O"
result: 86.1

query: Item under review: "CC(C)(C)NCCCCOc1ccc(F)cc1" . Reported viability?
result: 99.3

query: Requested read-out: viability. Entry: "COc1ccc(-n2nnc3c(=O)n(CC(=O)N4CCCCC4)cnc32)cc1"
result: 96.1

query: Dear colleague, I am looking for the recorded viability of the following molecule: "CCCc1nc(C)c(-c2ccc(OC)c(OC)c2)c(=O)[nH]1"
result: 101

====

Test: RAM signaling pathway blockade in yeast – S. cerevisiae, Pdr1DBD-CYC8 efflux-inhibited sensitized strain, primary screen (AID 1298);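 note: 0% = DMSO untreated cells without growth and 100% = 10 µM 1-NA-PP1 full growth; higher means more yeast growth rescued from 5-FOA killing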
Details: S. cerevisiae cbk1-as DSE1-URA3 strain, 5-FOA growth OD615, 2 d; at 50 µM; stronger effect = higher value
ENDPOINT: RAM network inhibition (%)
Enter your answer as a number in %; do not include the unit.

Check out these entries, answers already filled in.
Cc1nnc(-c2ccccc2)c[n+]1[O-] ... 0.63
Cc1ccc(S(=O)(=O)Cc2ccc(C(=O)N3CCN(c4ccc(F)cc4)CC3)o2)cc1 ... 4.81
Cc1cc(Nc2ccc(C(C)C)cc2)n2ncnc2n1 ... 5.75
CCOc1ccc(OCC)c(NC(=O)CN2CCC(NC(=O)c3cccc(F)c3)CC2)c1 ... 5.19
Cc1c(Br)cc(C(=O)NCCCN2CCOCC2)c(C)c1C ... 0.82

query: Could you share which RAM network inhibition value was measured for "COc1cc(NC(=O)Cn2ncc3c2-c2ccccc2OC3)cc(OC)c1OC" ?
result: 2.19

query: Looking for the measured RAM network inhibition of "CCOC(=O)c1[nH]c(C)c(C(=O)N(CC)CC)c1C" , can you help?
result: -0.57

====

Each item that follows carries a reported RAM network inhibition.
Test: RAM signaling pathway blockade in yeast – S. cerevisiae, Pdr1DBD-CYC8 efflux-inhibited sensitized strain, primary screen (AID 1298);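 note: 0% = DMSO untreated cells without growth and 100% = 10 µM 1-NA-PP1 full growth; higher means more yeast growth rescued from 5-FOA killing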
Conditions: S. cerevisiae cbk1-as DSE1-URA3 strain, 5-FOA growth OD615, 2 d; at 50 µM; stronger effect = higher value
The source made the active and inactive calls.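 How the source made its calls: active means RAM network inhibition above 8.4% in each of two replicates, 3 SD over the compound average; inconclusive means above 8.4% inhibition in only one replicate; inactive means 8.4% inhibition or less in each replicate.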

Solved cases below.
Cn1c(C(=O)N2CCC(C(=O)N3CCOCC3)CC2)cc2sccc21 ... 0.9% (inactive)
c1ccc(Cn2ncc3ccccc32)cc1 ... -0.97% (inactive)
COc1cc(C2N(c3ccccc3)CCN2c2ccccc2)ccc1OC(C)=O ... 2.35% (inactive)
O=C1c2oc3ccccc3c(=O)c2C(c2cccc(O)c2)N1CCCN1CCOCC1 (stereo unspecified) ... 2.79% (inactive)
CCOC(=O)N1CCN(C(=O)CSc2nnc(-c3ccc(C(C)(C)C)cc3)o2)CC1 ... 1.1% (inactive)

query: Which value of RAM network inhibition has been reported for "COc1ccc(Cc2nnc(SC)[nH]c2=O)cc1OC" in the records?
result: 1.41% (inactive)
